We begin with IC50 values for Coagulation factor XI (Homo sapiens), as collected from the published literature.
MEASURE: IC50 (nM)

Solved cases below.
IN: Supply recorded IC50 for Nc1c(C(=O)N2CCC[C@@]3(C2)OC(=O)Nc2ccc(Cl)c(F)c23)cnn1-c1ccccc1Cl here.
OUT: 739

IN: Supply recorded IC50 for COCCC(C(=O)Nc1ccc2c(=O)n(C)[nH]c2c1)n1cc2c(cc1=O)-c1cc(Cl)ccc1CC1(CC1)NC2=O (stereo not shown) here.
OUT: 8.4

IN: Supply recorded IC50 for Cc1cc(C(C)n2cc(NC(=O)c3nc(-c4c(OC(F)F)ccc(Cl)c4F)cnc3C)cn2)cnc1N1C[C@H]2C[C@H]2C1=O (single isomer, unassigned) here.
OUT: 139

IN: Supply recorded IC50 for CCC(O)(c1ccc(F)cc1)c1n[nH]c(C(=O)N2CCC[C@@]3(C2)OC(=O)Nc2ccc(Cl)c(F)c23)n1 (single isomer, unassigned) here.
OUT: 382

IN: Supply recorded IC50 for Nc1c(C(=O)N2CCC[C@@]3(C2)OC(=O)Nc2ccc(Cl)c(F)c23)cnn1-c1cc(F)ccc1OC(F)F here.
OUT: 1070

IN: Supply recorded IC50 for NC(=O)c1ccc(NC(=O)[C@H](C[C@@H]2COCCO2)n2cc3c(cc2=O)-c2cc(Cl)ccc2C[C@@H](C(F)(F)F)OC3)cc1F (single isomer, unassigned) here.
OUT: 3.8

(a) C[C@H]1C[C@@H](C(=O)Nc2ccc3nccnc3c2)N2C(=O)C=C(c3c(-n4cnnn4)ccc(Cl)c3F)C[C@H]12 (single isomer, unassigned)
(b) COCC(C)(n1ncc(C(=O)N2CCC[C@@]3(C2)OC(=O)Nc2ccc(Cl)c(F)c23)c1N)C(F)(F)F (single isomer, unassigned)
IN: Kindly compare a with b and tell me which has the lower IC50 figure. Your choice should be expressed through its label.
OUT: a

(1) NC(=O)c1ccc(NC(=O)C(C[C@@H]2CCCCO2)n2cc3c(cc2=O)-c2cc(Cl)ccc2CC(CO)OC3)cc1F (mixture of isomers)
(2) COc1cn(C(Cc2ccn(C)n2)C(=O)Nc2ccc3nn(C)cc3c2)c(=O)cc1-c1cc(Cl)ccc1OCC(F)(F)F (racemic)
(3) Nc1c(C(=O)N2CCC[C@@]3(C2)OC(=O)Nc2ccc(Cl)c(F)c23)cnn1CCC(F)(F)F
(4) Nc1c(C(=O)N2CCC[C@@]3(C2)OC(=O)Nc2ccc(Cl)c(F)c23)cnn1-c1ccncc1Cl
IN: Put the entries in order of IC50, starting with the largest number. The reply should contain the labels ordered as requested.
OUT: 3, 4, 1, 2
(3: 699 nM, 4: 316 nM, 1: 30 nM, 2: 9.3 nM)

----------
We begin with IC50 values for Coagulation factor XI (Homo sapiens, UniProt P03951), as collected from the published literature.
MEASURE: IC50 (nM)

Solved cases below.
IN: Supply recorded IC50 for COCCC(C(=O)Nc1ccc2[nH]ncc2c1)n1cc2c(cc1=O)-c1cc(Cl)ccc1CC1(CC1)NC2=O (stereo not shown) here.
OUT: 21

IN: Supply recorded IC50 for COc1cn([C@@H](CCOC(C)(C)C)C(=O)Nc2ccc3nc(C(=O)O)cn3c2)c(=O)cc1-c1cc(Cl)ccc1OCC(F)(F)F (single isomer, unassigned) here.
OUT: 0.93

IN: Supply recorded IC50 for COC(=O)c1cccc(Oc2ccc([N+](=O)[O-])c(-n3cc(C(=N)N)c4ccccc43)c2)c1 here.
OUT: 3000

(P) CCC(C(=O)Nc1ccc(C(=O)O)cc1)n1cc2c(cc1=O)-c1cc(Cl)ccc1CCNC2=O (stereo not shown)
(Q) O=C1Cc2cc(NC(=O)[C@@H]3CC[C@@H]4CC(c5c(-n6cnnn6)ccc(Cl)c5F)=CC(=O)N43)ccc2N1
(R) CC(c1cnc(N2C[C@H]3C[C@H]3C2C(=O)N(C)C)nc1)n1cc(NC(=O)c2cncc(-c3c(C(F)F)ccc(Cl)c3F)n2)cn1 (single isomer, unassigned)
(S) Nc1c(C(=O)N2CCC[C@@]3(C2)OC(=O)Nc2ccc(Cl)c(F)c23)cnn1-c1c(F)cccc1F
(T) COc1cn(C(CCOC(C)C)C(=O)Nc2ccc(C(=O)O)cc2)c(=O)cc1-c1cc(Cl)ccc1OCC(F)(F)F (racemic)
IN: Number of compounds to sort: 5. Sort criterion: IC50, ascending. The reply should contain the labels ordered as requested.
OUT: T, Q, P, S, R
(T: 1.9 nM, Q: 18.2 nM, P: 28 nM, S: 418 nM, R: 2260 nM)
